Measured values drawn from patent US20250074964A1 for this set.

Target: human GLP-1R (constitutively expressed on recombinant HEK293 CRE-luciferase reporter cells) (human, UniProt P43220 24-463)
Experiment: cell-based or functional assay
Starred links: 1 amine or outer side, 2 acyl side, 3 side chain; linkers in the order of their positions; H or OH if unused. Non-standard residues stand in square brackets, D forms with d. Groups on a side chain read outwards from the residue. No end group written: not given here. *: point of attachment. (CH2)18‑OH = polymethylene chain of 18 CH2 units ending in OH (m = 18), OCCCCCCCCCCCCCCCCCC*; γGlu = O=C(O)[C@H](CCC(=O)[*:2])N[*:1]; Dap = NC[C@H](N)C(=O)O; AEEA = NCCOCCOCC(=O)O; Aib = CC(C)(N)C(=O)O
test-readout: biological IC50, CRE-luciferase reporter assay

Guide cases for biological IC50, CRE-luciferase reporter assay, answers given:
binder | val
Y[Aib]EGTFTSDVSS[Aib]LEGQAAK([AEEA-AEEA-γGlu-(CH2)18‑OH])EFIAWLVRGRG [APi3709] | ~5.4 nM
H[Aib]EGTFTSDVSS[Aib]LEGQAAK([AEEA-AEEA-γGlu-(CH2)18‑OH])EFIAWLVRG[Dap]G [APi3712] | ~0.66 nM
HXEGTFTSDVSSXLEGQAAKEFIAWLVRGRG (GLP-1 numbering (first residue is Xaa7): Aib at Xaa8 and Xaa19; ε-amino group of Lys26 substituted with AEEA-AEEA-γ-Glu-(CH2)m-OH, m is 18) [APi3711] | ~0.66 nM

Now let's try a different one.
Need biological IC50, CRE-luciferase reporter assay, item H[Aib]EGTFTSDVSSY[Aib]EGQAAK([AEEA-AEEA-γGlu-(CH2)18‑OH])EFIAWLVGGPSSGAPPPS-NH2 [APi3713]
~0.57 nM
